The values you see were collected from PubChem BioAssay AID1963847.

Test system: 415267-285-R-J2-PDC complex spheroid viability;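 note: luminescence used as stand-in measure of viable cells; spheroids exposed to compounds for one week before readout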
Experiment: Anticancer human tumor 415267-285-R-J2-PDC patient-derived breast carcinoma cell line growth inhibition [POLQ]; active = viability on the fitted dose curve at most 10% of control; inactive = the rest
Settings: second compound 0.0316 µM; first compound 3.16 µM
Procedure: Multicellular complex tumor spheroid response to Polymerase (POL) inhibitors (novobiocin, ART-558, RP6685) in combination with a variety of drugs and investigational agents in selected tumor cell lines The POL inhibitors (novobiocin, ART-558, and RP6685) were evaluated both individually and in combination with standard of care and investigational anticancer small molecules within a complex spheroid model of solid tumors. . […]
Possible outcomes: active, inactive

compound	classLabel
O=c1[nH]cc(F)c(=O)[nH]1 + Cc1cccc(N(C)C(=O)C2C(O)CCN2c2nc(C)cc(C(F)(F)F)c2C#N)c1	inactive
CC(C)n1c(=O)n(C)c2cnc3cc(F)c(-c4ccc(OCCCN5CCCCC5)nc4)cc3c21 + Nc1ccc(C#CCN(C(=O)Cc2ncc(C(F)(F)F)cc2C(F)(F)F)c2ccc(F)cc2)nn1	inactive
CC1COCCN1c1cc(C2(S(C)(=N)=O)CC2)nc(-c2ccnc3[nH]ccc23)n1 (stereo not drawn) + COC1C(OC(N)=O)C(O)C(Oc2ccc3c(O)c(NC(=O)c4ccc(O)c(CC=C(C)C)c4)c(=O)oc3c2C)OC1(C)C	active
